# Experimental target: C3b (Homo sapiens, UniProt P01024)
# Construct: the α’NT, MG6^α−8, anchor, and C-terminal complement (CTC) domains of the α-chain that are all shared between C3c and C3b; purchased Complement Technology (Tyler, TX, USA)
# Sequence (P01024 23-667 limits assumed): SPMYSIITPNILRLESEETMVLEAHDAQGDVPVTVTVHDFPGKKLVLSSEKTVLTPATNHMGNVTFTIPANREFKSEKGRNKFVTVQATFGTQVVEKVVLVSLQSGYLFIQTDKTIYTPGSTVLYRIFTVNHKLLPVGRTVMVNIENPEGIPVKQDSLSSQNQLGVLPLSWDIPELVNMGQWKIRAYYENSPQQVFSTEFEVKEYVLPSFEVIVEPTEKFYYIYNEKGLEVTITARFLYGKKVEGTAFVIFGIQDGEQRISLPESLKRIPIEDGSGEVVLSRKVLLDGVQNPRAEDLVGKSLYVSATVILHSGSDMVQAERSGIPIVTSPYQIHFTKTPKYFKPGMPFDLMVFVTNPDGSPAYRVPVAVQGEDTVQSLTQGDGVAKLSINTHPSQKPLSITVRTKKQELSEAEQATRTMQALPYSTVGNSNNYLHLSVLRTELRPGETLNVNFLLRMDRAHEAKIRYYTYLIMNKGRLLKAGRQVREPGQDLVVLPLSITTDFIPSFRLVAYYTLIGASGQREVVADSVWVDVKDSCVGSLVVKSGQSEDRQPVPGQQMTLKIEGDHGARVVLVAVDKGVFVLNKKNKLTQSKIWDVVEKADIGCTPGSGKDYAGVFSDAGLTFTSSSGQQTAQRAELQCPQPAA
# Sequence (P01024 749-1663 limits assumed): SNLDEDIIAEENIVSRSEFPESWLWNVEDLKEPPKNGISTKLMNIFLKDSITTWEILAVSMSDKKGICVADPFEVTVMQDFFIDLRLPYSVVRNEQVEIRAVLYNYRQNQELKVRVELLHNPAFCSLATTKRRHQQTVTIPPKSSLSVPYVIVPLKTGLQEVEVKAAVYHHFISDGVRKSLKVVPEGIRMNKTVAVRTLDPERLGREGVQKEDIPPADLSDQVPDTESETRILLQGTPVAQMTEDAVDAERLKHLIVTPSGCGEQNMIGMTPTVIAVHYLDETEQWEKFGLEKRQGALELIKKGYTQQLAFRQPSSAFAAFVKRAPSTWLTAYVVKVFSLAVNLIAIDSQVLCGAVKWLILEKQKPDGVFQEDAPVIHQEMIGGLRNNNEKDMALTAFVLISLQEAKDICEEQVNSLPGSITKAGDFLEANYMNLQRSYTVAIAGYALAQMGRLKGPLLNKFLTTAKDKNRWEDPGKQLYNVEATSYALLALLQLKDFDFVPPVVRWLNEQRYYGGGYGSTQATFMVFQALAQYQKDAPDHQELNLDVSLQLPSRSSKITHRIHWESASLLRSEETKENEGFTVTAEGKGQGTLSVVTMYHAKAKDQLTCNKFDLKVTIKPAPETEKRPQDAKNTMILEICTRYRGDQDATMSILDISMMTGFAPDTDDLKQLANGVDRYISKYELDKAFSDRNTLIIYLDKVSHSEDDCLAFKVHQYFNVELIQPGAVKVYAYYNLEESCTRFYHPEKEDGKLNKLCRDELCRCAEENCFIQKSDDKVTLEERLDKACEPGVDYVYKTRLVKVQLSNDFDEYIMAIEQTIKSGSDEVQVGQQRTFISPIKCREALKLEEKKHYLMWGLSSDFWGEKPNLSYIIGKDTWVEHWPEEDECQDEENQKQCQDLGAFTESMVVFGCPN
# Procedure details: SPR kinetic binding studies on immobilized C3b
# Conditions used: source data of Table 1, single SPR dataset 3; read-out: KD, Dataset 3
Bridge positions count the residues as written; N and C are the ends. Square brackets hold non-standard residues; d marks the D form. Peptide text beside a SMILES is read from it. Trp(1-Me) = Cn1cc(C[C@H](N)C(=O)O)c2ccccc21; NMeI = CC[C@H](C)[C@H](NC)C(=O)O; Sar = CNCC(=O)O
Quick list: Kd per entry.
Endpoint: Kd (nM)

[
  {
    "Compound": "CC[C@H](C)[C@H](NC(=O)[C@H](N)Cc1ccc(O)cc1)C(=O)N[C@H]1CSSC[C@@H](C(=O)N(C)[C@H](C(N)=O)[C@@H](C)CC)NC(=O)[C@H](CCCNC(=N)N)NC(=O)[C@H](Cc2c[nH]cn2)NC(=O)[C@H](C)NC(=O)CN(C)C(=O)[C@H](Cc2c[nH]c3ccccc23)NC(=O)[C@H](CO)NC(=O)[C@H](CCC(N)=O)NC(=O)[C@H](Cc2cn(C)c3ccccc23)NC(=O)[C@H](C(C)C)NC1=O [Cp40 D7S] (H-[dY]ICV[Trp(1-Me)]QSW[Sar]AHRC[NMeI]-NH2; disulfide 3-13)",
    "Experimental value": 4.45
  },
  {
    "Compound": "CC[C@H](C)[C@H](NC(C)=O)C(=O)N[C@H]1CSSC[C@@H](C(=O)N(C)[C@H](C(N)=O)[C@@H](C)CC)NC(=O)[C@H](CCCNC(=N)N)NC(=O)[C@H](Cc2c[nH]cn2)NC(=O)[C@H](C)NC(=O)CN(C)C(=O)[C@H](Cc2c[nH]c3ccccc23)NC(=O)[C@H](CC(=O)O)NC(=O)[C@H](CCC(N)=O)NC(=O)[C@H](Cc2cn(C)c3ccccc23)NC(=O)[C@H](C(C)C)NC1=O [Cp20, reference compound]",
    "Experimental value": 3.76
  },
  {
    "Compound": "CC[C@H](C)[C@H](NC(=O)[C@H](N)Cc1ccc(O)cc1)C(=O)N[C@H]1CSSC[C@@H](C(=O)N(C)[C@H](C(N)=O)[C@@H](C)CC)NC(=O)[C@H](CCCNC(=N)N)NC(=O)[C@H](Cc2c[nH]cn2)NC(=O)[C@H](C)NC(=O)CNC(=O)[C@H](Cc2c[nH]c3ccccc23)NC(=O)[C@H](CC(=O)O)NC(=O)[C@H](CCC(N)=O)NC(=O)[C@H](Cc2cn(C)c3ccccc23)NC(=O)[C@H](C(C)C)NC1=O",
    "Experimental value": 2.63
  },
  {
    "Compound": "CC[C@H](C)[C@H](NC(=O)[C@@H](C)N)C(=O)N[C@H]1CSSC[C@@H](C(=O)N(C)[C@H](C(N)=O)[C@@H](C)CC)NC(=O)[C@H](CCCNC(=N)N)NC(=O)[C@H](Cc2c[nH]cn2)NC(=O)[C@H](C)NC(=O)CN(C)C(=O)[C@H](Cc2c[nH]c3ccccc23)NC(=O)[C@H](CC(=O)O)NC(=O)[C@H](CCC(N)=O)NC(=O)[C@H](Cc2cn(C)c3ccccc23)NC(=O)[C@H](C(C)C)NC1=O",
    "Experimental value": 3.63
  },
  {
    "Compound": "CC[C@H](C)[C@H](NC(=O)[C@H](N)Cc1ccc(O)cc1)C(=O)N[C@H]1CSSC[C@@H](C(=O)N(C)[C@H](C(N)=O)[C@@H](C)CC)NC(=O)[C@H](CO)NC(=O)[C@H](Cc2c[nH]cn2)NC(=O)[C@H](C)NC(=O)CN(C)C(=O)[C@H](Cc2c[nH]c3ccccc23)NC(=O)[C@H](CO)NC(=O)[C@H](CCC(N)=O)NC(=O)[C@H](Cc2cn(C)c3ccccc23)NC(=O)[C@H](C(C)C)NC1=O [Cp40 D7S/R12S] (H-[dY]ICV[Trp(1-Me)]QSW[Sar]AHSC[NMeI]-NH2; disulfide 3-13)",
    "Experimental value": 25.5
  }
]
